test-summary: Tissue distribution test (muscle tissue under skin after application to the back)
test-parameters: rat, in vivo, 1 g preparation, Concentration in muscle tissue, 4 hours after administration of 1 g preparation on back skin; rats, n = 3
quantity-kind: concentration at 4 h (ng/mL)
I only need the number, in ng/mL, no unit after it.

Quick one: concentration at 4 h for Nc1c(CC(=O)[O-])cccc1C(=O)c1ccc(Br)cc1.[Na+] [Bromfenac sodium, hydrate, reference compound] ?
693

====

test-summary: Tissue distribution test (muscle tissue under skin after application to the back)
test-parameters: rat, muscle tissue under skin of administration site, topical, 1 g preparation, Concentration in muscle tissue, 6 hours after administration of 1 g preparation on back skin; rats, n = 3
Structures can show the parent of a compound that is named as a salt.
quantity-kind: concentration at 6 h (ng/mL)
I only need the number, in ng/mL, no unit after it.

Quick one: concentration at 6 h for Nc1c(CC(=O)O)cccc1C(=O)c1ccc(Br)cc1 [Bromfenac trometamol salt, bromfenac trometamol salt] ?
1100

====

test-summary: Tissue distribution test (muscle tissue under skin after application to the back)
test-parameters: rat, muscle tissue under skin of administration site, topical, 1 g preparation, Concentration in muscle tissue, 0 hours (before administration); rats, n = 3
Counter-ions that a name gives are not always drawn.
quantity-kind: concentration at 0 h (ng/mL)
I only need the number, in ng/mL, no unit after it.

Quick one: concentration at 0 h for Nc1c(CC(=O)O)cccc1C(=O)c1ccc(Br)cc1 [Bromfenac trometamol salt, bromfenac trometamol salt] ?
0

====

test-summary: Tissue distribution test (muscle tissue under skin after application to the back)
test-parameters: rat, in vivo, 1 g preparation, Concentration in muscle tissue, 8 hours after administration of 1 g preparation on back skin; rats, n = 3
quantity-kind: concentration at 8 h (ng/mL)
I only need the number, in ng/mL, no unit after it.

Quick one: concentration at 8 h for Nc1c(CC(=O)[O-])cccc1C(=O)c1ccc(Br)cc1.[Na+] [Bromfenac sodium, hydrate, reference compound] ?
313

====

test-summary: Tissue distribution test (muscle tissue under skin after application to the back)
test-parameters: rat, muscle tissue under skin of administration site, topical, 1 g preparation, Concentration in muscle tissue, 8 hours after administration of 1 g preparation on back skin; rats, n = 3
Where a name gives a salt, the structure may show the parent alone.
quantity-kind: concentration at 8 h (ng/mL)
I only need the number, in ng/mL, no unit after it.

Quick one: concentration at 8 h for Nc1c(CC(=O)O)cccc1C(=O)c1ccc(Br)cc1 [Bromfenac trometamol salt, bromfenac trometamol salt] ?
790

====

test-summary: Tissue distribution test (muscle tissue under skin after application to the back)
test-parameters: rat, in vivo, 1 g preparation, Concentration in muscle tissue, 0 hours (before administration); rats, n = 3
quantity-kind: concentration at 0 h (ng/mL)
I only need the number, in ng/mL, no unit after it.

Quick one: concentration at 0 h for Nc1c(CC(=O)[O-])cccc1C(=O)c1ccc(Br)cc1.[Na+] [Bromfenac sodium, hydrate, reference compound] ?
0

====

test-summary: Tissue distribution test (muscle tissue under skin after application to the back)
test-parameters: rat, in vivo, 1 g preparation, Concentration in muscle tissue, 10 hours after administration of 1 g preparation on back skin; rats, n = 3
quantity-kind: concentration at 10 h (ng/mL)
I only need the number, in ng/mL, no unit after it.

Quick one: concentration at 10 h for Nc1c(CC(=O)[O-])cccc1C(=O)c1ccc(Br)cc1.[Na+] [Bromfenac sodium, hydrate, reference compound] ?
130

====

test-summary: Tissue distribution test (muscle tissue under skin after application to the back)
test-parameters: rat, muscle tissue under skin of administration site, topical, 1 g preparation, Concentration in muscle tissue, 4 hours after administration of 1 g preparation on back skin; rats, n = 3
Structures can show the parent of a compound that is named as a salt.
quantity-kind: concentration at 4 h
Kindly format the answer as number then unit.

Quick one: concentration at 4 h for Nc1c(CC(=O)O)cccc1C(=O)c1ccc(Br)cc1 [Bromfenac trometamol salt, bromfenac trometamol salt] ?
1490 ng/mL
